test system: MDA-MB-435; assay: NCI tumour cell line growth inhibition, 48 h
Calls of active or inactive are those of the source. No stated cut-off is given here; in the data, active = GI50 up to about 1.1 µM and inactive = higher.
Classes used: active, inactive

1. Cc1cc2nnn(C3CCCCO3)c2cc1C (configuration not stated): inactive
2. COc1ccc(N2C(=O)C3c4[nH]c5ccccc5c4C4c5ccccc5CC4C3C2=O)cc1 (configuration not stated): inactive
3. COc1ccc(-c2ncn(C[Si](C)(C)C)c2-c2ccc(OC)cc2)cc1: inactive
4. Cc1cc(S(=O)(=O)Nc2nc3cscc3c(=O)n2N)c(S)cc1Cl: inactive
5. CCOC(=O)c1cc2c([N+](=O)[O-])c(NC(C)=O)ccc2s1: inactive
6. COc1ccc(C(=O)c2[nH]c(Nc3cc(C)ccn3)c(C(=S)Nc3ccccc3)c2N)cc1: inactive
7. CO/N=C\c1ccc2c(c1)Sc1ccccc1O2: inactive
8. N#C[BH2-][n+]1cn(C2CC(O)C(COP(=O)(O)OC3CC(n4cnc5c(N)ncnc54)OC3CO)O2)c2nc(N)[nH]c(=O)c21 (configuration not stated): inactive
9. Cc1nc2cn3c(c2c(=O)[nH]1)CCCCC3: inactive
10. O=C(NNS(=O)(=O)c1ccccc1)c1csc(NC(=S)NC2CCCCC2)n1: inactive
11. COc1ccccc1-n1c(=O)n(C)c(=O)n1C(C)(C)C: inactive
12. CC(=O)O[C@@H]1C=C(C)[C@H](CBr)O[C@@]2(C)CC[C@H](Br)C(C)(C)[C@H]12: inactive
13. COC(=O)/C=C1/OC(c2ccc(Br)cc2)=C(Br)C1=O: inactive
14. Cc1cc(N(CCC#N)CCC#N)ccc1C(/N=N/c1ccccc1)=N\NC(=O)c1cc(Cl)ccc1O: inactive
15. CCCCc1ccc2[n+](c1)C(C(=O)OCC)=PC2 (configuration not stated): inactive
16. CCCCCCCCCC1(N=[N+]=[N-])C(=O)c2ccccc2N(C)C1=O (configuration not stated): inactive
17. COC(=O)c1c(O)ccc2c1c1c(n2Cc2ccccc2)C(=O)c2ccccc2C1: inactive
18. CN1CCc2c(sc3ncn(Nc4ccc(Cl)cc4)c(=N)c23)C1: inactive
19. CCOP(=O)(CN1CCNCCNCC1)OCC: inactive
20. CCOP(=Nc1ccc(N(C)C)cc1)(OCC)OCC: inactive
21. C=CC1(O)CCCC=C1COCc1ccccc1 (configuration not stated): inactive
22. O=CC1C[C@@H](N2C(=O)O[C@@H](c3ccccc3)[C@H]2c2ccccc2)[C@@H]1COCc1ccccc1 (some centres not stated): inactive
23. OC1(c2cccs2)c2cccc(Cl)c2C(O)(c2cccs2)c2c(Cl)cccc21 (configuration not stated): inactive
24. COc1cc2c(c(OC)c1OC)-c1ccc(SC)c(=O)cc1C(NC=O)CC2 (configuration not stated): active
25. COc1ccc2c(c1)c(CC(=O)O)c(C)n2C(=O)c1ccc(Cl)cc1: inactive
26. COc1cc(Br)cc2cc(C3=CSC4=NCCN34)c(=O)oc12: inactive
27. Oc1ccc(/C=N/CC2CCCN3CCCCC23)cc1 (configuration not stated): inactive
28. CC1(C)CCCCC1/C=C/C(CC(O)(C(F)(F)F)C(F)(F)F)=N\Nc1ccc([N+](=O)[O-])cc1[N+](=O)[O-] (configuration not stated): active
29. CC(=O)C(I(OS(=O)(=O)c1ccc(C)cc1)c1ccccc1)=P(c1ccccc1)(c1ccccc1)c1ccccc1: inactive
30. Cc1csc2c1C(=O)c1ccsc1C2=O: active
31. CCCCc1ccc(Nc2nc(Cl)c3ncn(C4CC(Oc5ccc(C)cc5)C(COc5ccc(C)cc5)O4)c3n2)cc1 (configuration not stated): inactive
32. CCCCCC1=CC(=O)C1(Cl)Cl: inactive
33. CC(Oc1ccccc1Cl)C(=O)NN1C(=O)CSC1c1ccc(Cl)cc1 (configuration not stated): inactive
34. O=c1[nH]nc(Cc2ccccc2)n1C1CCCC1: inactive
35. CCOC(=O)NC(=S)NC(C)c1ccccc1 (configuration not stated): inactive
36. c1cc(-c2cscc2-c2ccsc2)cs1: inactive
37. CC1=CC(=O)[C@@H](O)[C@]2(C)[C@H]3[C@@]4(O)OC[C@]35[C@H]([C@@H](C)[C@H]4O)[C@@H](OC(=O)C(C)(C)CO)C(=O)O[C@@H]5C[C@@H]12: active
38. CSC1=NC(C(N)=O)C(N)N1C (configuration not stated): inactive
39. CCCC(CC)c1c(O)c(O)c(C(CC)CCC)c(C(CC)CCC)c1C(CC)CCC (configuration not stated): inactive
40. Cc1c(O)ccc2c(O)c(NC(=O)c3ccc4c(c3)CCC(C)(C)O4)c(=O)oc12: inactive
41. c1cc(CN2CCNCCNCCNCC2)cc(CN2CCNCCNCCNCC2)c1: inactive
42. CSc1nc2c(N)ncnc2n1C: inactive

meta.source: ChEMBL document CHEMBL1201862
